Target: Cytochrome P450 3A4 (Homo sapiens)
Test: Inhibition of CYP3A4 (unknown origin) using midazolam as substrate preincubated for 10 mins followed by NADPH addition by LC/MS/MS analysis
Type: ADME
measurement.label: IC50 (µM)

# sample.smiles, measurement.label, reported.value
measured = [
    ("Cc1nc2c([N+](=O)[O-])c(Cl)c(Cl)cc2n1Cc1ccc(B2OC(=O)CN(C)CC(=O)O2)cc1", "IC50", 28.1),
]

----------
Molecular target: Cytochrome P450 3A4 (Homo sapiens, UniProt P08684)
Sequence (P08684 whole entry): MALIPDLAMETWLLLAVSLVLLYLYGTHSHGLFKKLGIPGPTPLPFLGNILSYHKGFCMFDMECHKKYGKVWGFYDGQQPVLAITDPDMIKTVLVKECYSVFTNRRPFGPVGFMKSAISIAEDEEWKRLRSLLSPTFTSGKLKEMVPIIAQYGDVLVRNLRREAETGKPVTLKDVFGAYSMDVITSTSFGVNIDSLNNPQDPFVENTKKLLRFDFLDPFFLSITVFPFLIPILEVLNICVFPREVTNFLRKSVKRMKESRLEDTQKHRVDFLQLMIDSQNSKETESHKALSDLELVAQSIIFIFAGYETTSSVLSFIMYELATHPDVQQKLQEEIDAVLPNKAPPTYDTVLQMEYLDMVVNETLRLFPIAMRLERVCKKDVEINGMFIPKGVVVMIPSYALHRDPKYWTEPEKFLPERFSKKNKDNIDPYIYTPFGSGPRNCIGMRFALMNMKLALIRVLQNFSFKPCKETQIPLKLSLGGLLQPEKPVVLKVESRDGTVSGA
Assay: Inhibition of CYP3A4 (unknown origin) using testostrone as substrate preincubated for 10 mins followed by NADPH addition by LC/MS/MS analysis
Format: ADME

# sample.smiles, IC50 (µM)
measured = [
    ("Cc1nc2c([N+](=O)[O-])c(Cl)c(Cl)cc2n1Cc1ccc(B2OC(=O)CN(C)CC(=O)O2)cc1", 21.9),
]
